These data points were gathered from the RNAGym collection of RNA variant scans (doi:10.7554/elife.90254).

Readings of self-cleavage for the listed variants
B1: LINE1-full (parent)
chain: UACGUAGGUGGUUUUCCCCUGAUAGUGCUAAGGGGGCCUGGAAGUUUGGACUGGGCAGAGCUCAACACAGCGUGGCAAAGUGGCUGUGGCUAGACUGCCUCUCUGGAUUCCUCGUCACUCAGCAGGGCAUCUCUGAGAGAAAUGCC

Variants of: B1
measurementProtocol: self-cleavage, relative activity (ratio to wild type); higher = more cleavage; in vitro, sequencing; the parent is a self-cleaving ribozyme

{"columns": ["residueChange", "self-cleavage"],
 "data": [
  ["U13C A24G", 1.16],
  ["U14A U52A", 1.09],
  ["U5A U12C", 0.74],
  ["A2G U15A", 1],
  ["A59G A141G", 0.08],
  ["U9A C131U", 0.79],
  ["U47C C84A", 0.15],
  ["U62A A69G", 0.02],
  ["U91A A140G", 0.45],
  ["A79G A138C", 2.4],
  ["U5C G80A", 2.24],
  ["A69U A77U", 0.06],
  ["G4A A124U", 0.53],
  ["U45G U96A", 0.03],
  ["U52C C84U", 0.15],
  ["A22G C133U", 0.58],
  ["U47A A57C", 0.06],
  ["G55A U108C", 0.52],
  ["C101U A124G", 2.06],
  ["U45C G60C", 0.03],
  ["G7A A30G", 0.84],
  ["U13A G55A", 0.21],
  ["U9C C98U", 0.59],
  ["G27U G41U", 1.26],
  ["U130A A138U", 1.64],
  ["A43U A69U", 0.05],
  ["U73A U115A", 1.66],
  ["A22G G93A", 0.03],
  ["A31U A67U", 0.3],
  ["A64U U96C", 0.04],
  ["C28U U52C", 1.58],
  ["A77G G93U", 0.05],
  ["G48A U130C", 1.53],
  ["A31U U115A", 1.08],
  ["G58A A136G", 0.05],
  ["U13A U87C", 0.16],
  ["U81C U130A", 1.27],
  ["A59G A141U", 0.2],
  ["G7A A78G", 1.12],
  ["U91A A136U", 0.54],
  ["A22G A142G", 1.23],
  ["U12C U39G", 0.84],
  ["G11A A107G", 1.65],
  ["A78G A121C", 1.9],
  ["U115C A129U", 2.01],
  ["G106A G135U", 1.88]
]}
